- METHOD_DESCRIPTION: Cytotoxicity against mouse RAW264.7 cells assessed as inhibition of cell viability at 116.78 uM after 72 hrs by CellTiter 96 non radioactive cell proliferation assay
- Format: cell-based
QUANTITY_KIND: inhibition at 72 h, 116.78 µM (%)

compound_structure_string=FC(F)(F)c1cccc(-n2cc(CN3CCN(c4noc5ccccc45)CC3)nn2)c1 quantity_kind="inhibition at 72 h, 116.78 µM" unit_spec=% recorded_result=19.2

====

selectivity ratio values, listed per item
- METHOD_DESCRIPTION: Selectivity index, ratio of IC50 for mouse RAW264.7 cells to MIC for Mycobacterium tuberculosis H37Rv
- Type: toxicity
- SETUP_CONDITIONS: read-out: Selectivity Index
QUANTITY_KIND: selectivity ratio

compound_structure_string=FC(F)(F)c1cccc(-n2cc(CN3CCCN(c4noc5ccccc45)CC3)nn2)c1 recorded_result=6.29
compound_structure_string=FC(F)(F)c1cccc(-n2cc(CN3CCN(c4noc5ccccc45)CC3)nn2)c1 recorded_result=10.4
compound_structure_string=FC(F)(F)c1cc(-n2cc(CN3CCCN(c4noc5ccccc45)CC3)nn2)ccc1Br recorded_result=7.54
compound_structure_string=FC(F)(F)c1cc(-n2cc(CN3CCN(c4noc5ccccc45)CC3)nn2)ccc1Br recorded_result=36.1
